Just for reference, patent US10173991B2 is where these values come from.

# system_under_test: Endothelial lipase (EL) (Homo sapiens (Human), UniProt Q9Y5X9)
# Sequence (Q9Y5X9 21-500): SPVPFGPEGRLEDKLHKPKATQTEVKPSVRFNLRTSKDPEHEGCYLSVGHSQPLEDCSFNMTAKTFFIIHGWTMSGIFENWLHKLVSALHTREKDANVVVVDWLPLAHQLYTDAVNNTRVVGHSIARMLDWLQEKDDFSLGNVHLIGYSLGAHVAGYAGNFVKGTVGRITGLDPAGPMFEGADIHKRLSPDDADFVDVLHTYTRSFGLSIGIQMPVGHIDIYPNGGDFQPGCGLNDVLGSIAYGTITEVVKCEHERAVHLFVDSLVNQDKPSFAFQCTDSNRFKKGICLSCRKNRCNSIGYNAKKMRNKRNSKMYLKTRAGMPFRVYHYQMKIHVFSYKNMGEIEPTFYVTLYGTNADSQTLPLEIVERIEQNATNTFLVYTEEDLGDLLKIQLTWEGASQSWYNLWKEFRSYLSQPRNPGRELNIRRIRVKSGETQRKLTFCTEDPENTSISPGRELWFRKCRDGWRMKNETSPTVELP
# procedure_text: Endothelial lipase (EL) enzymatic assay with fluorescent substrate A10070 in DMPG vesicles
# Assay type: biochemical
readout: IC50 (nM)

Field: example entries. Status: answers known.
INSERT INTO measurements (compound, value_observed) VALUES
  ('COC(=O)Nc1ccc(-c2cc3nc(C(C(=O)NCC(=O)NC4CC4)S(=O)(=O)C(C)C)sc3cc2F)cc1 (stereo not shown)', 6),
  ('CS(=O)(=O)C(C(=O)NCC(=O)NC1CC1)c1nc2cc(-c3ccc4c(c3)NC(=O)C4)c(F)cc2s1 (stereo not shown)', 36);

(I) Cc1cc2nc(C(C(=O)NCC(=O)NC3CC3)S(=O)(=O)C(C)C)sc2cc1-c1ccc2c(=O)n(C)ccc2c1 (stereo not shown)
(II) COc1cncc(-c2cc3sc(C(C(=O)NCC(=O)NC4CC4)S(C)(=O)=O)nc3cc2F)c1 (stereo not shown)
Rank I against II by their IC50 values and give the higher one. Selection: enter the item's label.
II
(II: 15 nM, I: 3 nM)
